# measurement-target: GST-CBP(1081-1197) bromodomain (Homo sapiens (Human))
# Sequence (Q92793 1081-1197): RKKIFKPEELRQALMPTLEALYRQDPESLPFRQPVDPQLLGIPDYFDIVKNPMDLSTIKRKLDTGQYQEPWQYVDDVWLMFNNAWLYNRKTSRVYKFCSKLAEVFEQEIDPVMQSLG
# test-description: CBP AlphaScreen Assay
# condition-description: binding to biotin-H4(1-21) Ac-K5/8/12/16
readout: IC50 (µM)
Give the value in µM but do not write µM after it.

compound: C[C@@H]1C(=O)N(C)Cc2c(-c3cccc4nc(-c5ccn(C)n5)c(C(F)F)cc34)nc(C3CCOCC3)n21 [Example 89a]
units: µM
IC50: 0.001

compound: Cn1cc(-c2cc3cccc(-c4nc(C5CC5)n5c4CN(CCF)C(=O)C5)c3cn2)cn1 [Example 7]
units: µM
IC50: 0.019

compound: CC1C(=O)N(C)Cc2c(-c3c(F)ccc4nc(-c5cnn(C)c5)c(C(F)F)cc34)nc(C3CCOCC3)n21 (single isomer, unassigned) [Example 36b]
units: µM
IC50: 0.144

Answer briefly: IC50 recorded on GST-CBP(1081-1197) bromodomain (Homo sapiens (Human)) for CC1C(=O)N(C)Cc2c(-c3cccc4nc(-c5cnn(C)c5)c(C(F)F)cc34)nc(C3CNC3)n21 (centres unmarked) [Example 18]
0.05

Supply IC50 measured with GST-CBP(1081-1197) bromodomain (Homo sapiens (Human)) for CC(=O)N1CC(c2nc(-c3cccc4nc(-c5cnn(C)c5)c(C(F)F)cc34)c3n2C(C)C(=O)N(C)C3)C1 (centres unmarked) [Example 19] .
0.041

For GST-CBP(1081-1197) bromodomain (Homo sapiens (Human)), give the measured IC50 of the entry CCC1C(=O)N(C)Cc2c(-c3cccc4nc(-c5cnn(C)c5)c(C(F)F)cc34)nc(C3CCOCC3)n21 (single isomer, unassigned) [Example 64b]
0.046

Give reported IC50 for CC1C(=O)N(C)Cc2c(-c3cccc4nc(-c5cnn(C)c5)c(C(F)(F)F)cc34)nc(C3CCOCC3)n21 (single isomer, unassigned) [Example 26a] (GST-CBP(1081-1197) bromodomain (Homo sapiens (Human)))
0.002

Report the value of IC50 obtained on GST-CBP(1081-1197) bromodomain (Homo sapiens (Human)) for CCN1Cc2c(N3CCCc4cc(-c5cnn(C)c5)c(C(F)F)cc43)nc(C3CC3)n2CC1=O [Example 48] .
0.018

Please report the measured IC50 for CN1Cc2c(N3CCCc4cc(-c5cnn(C)c5)c(C(F)F)cc43)nc(C3CC3)n2CC1=O [Example 106] tested on GST-CBP(1081-1197) bromodomain (Homo sapiens (Human)).
0.009

These entries and their values trace back to patent US10899769B2.
